# Study system: T1, CRBN, Q96SW2;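 also: pooled lentiviral library of zinc finger degron-EGFP fusions in mCherry-positive Jurkat cells, FACS-sorted after compound exposure, with degron abundance counted by next-generation sequencing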
# T1 chain: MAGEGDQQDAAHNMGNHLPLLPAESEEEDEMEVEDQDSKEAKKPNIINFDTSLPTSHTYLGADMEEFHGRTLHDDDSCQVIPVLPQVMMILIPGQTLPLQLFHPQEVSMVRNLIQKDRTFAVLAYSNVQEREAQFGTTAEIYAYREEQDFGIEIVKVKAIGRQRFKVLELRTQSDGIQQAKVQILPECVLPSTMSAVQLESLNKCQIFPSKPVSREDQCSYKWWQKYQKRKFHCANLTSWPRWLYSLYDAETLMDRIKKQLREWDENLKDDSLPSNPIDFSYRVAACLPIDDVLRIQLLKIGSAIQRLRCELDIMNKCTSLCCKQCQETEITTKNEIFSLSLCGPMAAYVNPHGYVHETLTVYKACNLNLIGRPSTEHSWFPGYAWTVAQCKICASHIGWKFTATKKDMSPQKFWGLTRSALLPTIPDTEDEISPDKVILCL
# Test summary: log2 fold change of degron read counts, EGFP-low vs EGFP+ sorted cells (limma voom), compound-induced degradation; higher = more compound-induced degradation of the degron-EGFP fusion; degrons are variants of IKZF1/3 zinc finger 2; compound dose not given here
# Condition description: Jurkat; 18 h; compound: compound 19 (5-tert-butyl-thalidomide)
The full ranking holds about 8,300 sequences; the median of “log2 fold change of degron read counts, EGFP-low vs EGFP+ sorted cells (limma voom), compound-induced degradation” is about -1.1, and the highest 2% start at about 3.2. This is one part of a sample in which the highest values are shown more often than they occur.
Observation type: log2 fold change of degron read counts
Number, no unit, nothing else.

Solved cases (3 shown):
>>> endpoint_result("FICPVCGAQFTQKGNLLRHIKL [46F_47I_49P_50V_52G_53A_54Q_55F_67L_, Q9UKT9]")
-0.745
>>> endpoint_result("FTCEICGHIFTQKGNLLRHIKL [46F_47T_49E_50I_52G_53H_54I_55F_67L_, Q9UKT9]")
-2.87
>>> endpoint_result("FNCEICGRGFTQKGNLLRHIKL [46F_47N_49E_50I_52G_53R_54G_55F_67L_, Q9UKT9]")
-0.684

# input sequence: FHCPVCGAQFTQKGNLLRHIKL [46F_47H_49P_50V_52G_53A_54Q_55F_67L_, Q9UKT9] ; wanted: its log2 fold change of degron read counts
1.78

# input sequence: FRCEICGRRFTQKGNLLRHIKL [46F_47R_49E_50I_52G_53R_54R_55F_67L_, Q9UKT9] ; wanted: its log2 fold change of degron read counts
-2.67

# input sequence: LQCEICGFDCTQKGNLLRHIKL [46L_47Q_49E_50I_52G_53F_54D_55C_67L_, Q9UKT9] ; wanted: its log2 fold change of degron read counts
-2.82

# input sequence: FVCNVCGARFTQKGNLLRHIKL [46F_47V_49N_50V_52G_53A_54R_55F_67L_, Q9UKT9] ; wanted: its log2 fold change of degron read counts
-0.689

Source listed as the supplement of paper PMC12645437.
